Tested on: HCT116
Test: cell viability (CellTiter-Glo) relative to plate median (fraction of plate median); higher = more viable cells
Measurement Setup: 5 µM; treatment time 24 h; reporter: TCF4/Wnt
List of cell viability values.
Test Readout: cell viability

>>> reported_value("CC(C)Nc1nc(Cl)nc(NC(C)C)n1")
0.952
>>> reported_value("COc1cc(OC)c(OC)cc1C=O")
1.01
>>> reported_value("CO[C@]12C[C@@H](COC(=O)c3cncc(Br)c3)CN(C)[C@@H]1Cc1cn(C)c3cccc2c13")
0.976
>>> reported_value("O=C(O)CCCc1ccc(N(CCCl)CCCl)cc1")
0.958
>>> reported_value("COc1cc2c(cc1-c1cc3cc4ccoc4cc3oc1=O)OCO2")
0.949
>>> reported_value("C[C@]12CC[C@H]3[C@@H](CC[C@]4(O)C[C@@H](O)CC[C@]34C=O)[C@@]1(O)CC[C@@H]2C1=CC(=O)OC1")
0.502
>>> reported_value("C=C(C)c1cc2cc(C(C)=O)c(O)cc2o1")
1.06
>>> reported_value("C[C@@H]1CC[C@]2(NC1)O[C@H]1C[C@H]3[C@@H]4CC=C5C[C@@H](O)CC[C@]5(C)[C@H]4CC[C@]3(C)[C@H]1[C@@H]2C")
0.904
>>> reported_value("Nc1ccc([As](=O)(O)O)cc1")
1.09
>>> reported_value("C=CCc1cc(OC)c2c(c1OC)OCO2")
0.864
>>> reported_value("COc1ccc(C(=O)O)cc1OC")
1.04
